Task for the reader: assign each of the following sequences its reported Kd.
Target: HLA-B*18:01
Assay: IEDB peptide-MHC binding, purified MHC/competitive/fluorescence; filed as Kd, often an IC50 or EC50 that approximates it; bounds were set here for any values at or beyond the usual limits of such assays
Details: source organism: Zaire ebolavirus

Quick check: Kd of FLILPQAKK ?
≥ 20 µM

Requested field: Kd. Item: EAEKQLQQY
≥ 20 µM

Requested field: Kd. Item: KLINTLFHA
≥ 20 µM

----------
Target: HLA-B*08:01
Assay: IEDB peptide-MHC binding, purified MHC/direct/fluorescence; filed as Kd, often an IC50 or EC50 that approximates it; bounds were set here for any values at or beyond the usual limits of such assays
Conditions: source organism: Mycobacterium avium 104
readout name: Kd (nM)
Give your result in nM as a bare value.

Kd lookup needed for IAHVRDVVM , thanks.
182

----------
Molecular target: HLA-B*15:01
Test: IEDB peptide-MHC binding, purified MHC/direct/fluorescence; filed as Kd, often an IC50 or EC50 that approximates it; bounds were set here for any values at or beyond the usual limits of such assays
Settings: source organism: Pseudomonas viridiflava
readout name: Kd

Consider the sequence shown here: DYDQRDYGF What is its recorded Kd?
≥ 20 µM

----------
Molecular target: HLA-A*24:03
Assay: IEDB peptide-MHC binding, purified MHC/competitive/fluorescence; filed as Kd, often an IC50 or EC50 that approximates it; bounds were set here for any values at or beyond the usual limits of such assays
Conditions: source organism: Orthohantavirus andesense
readout name: Kd
The number alone won't do; follow it with the unit.

Look up Kd: VFTSRIQVI
24.6 nM

----------
Target: HLA-A*30:02
Assay: IEDB peptide-MHC binding, purified MHC/competitive/radioactivity; filed as Kd, often an IC50 or EC50 that approximates it; bounds were set here for any values at or beyond the usual limits of such assays
Details: source organism: Lassa virus GA391
readout name: pKd
Lab note — pKd values are minus log10 of concentrations in M.

Given the sequence YCNYSRYWYL , what is its reported pKd?
4.92

----------
Target: HLA-B*57:01
Assay: IEDB peptide-MHC binding, purified MHC/competitive/fluorescence; filed as Kd, often an IC50 or EC50 that approximates it; bounds were set here for any values at or beyond the usual limits of such assays
Details: source organism: Choclo virus
readout name: Kd

State the recorded Kd for this entry: GRFQEALKK
≥ 20 µM

----------
Biological target: HLA-B*51:01
Test: IEDB peptide-MHC binding, purified MHC/competitive/fluorescence; filed as Kd, often an IC50 or EC50 that approximates it; bounds were set here for any values at or beyond the usual limits of such assays
Conditions: source organism: Vibrio parahaemolyticus RIMD 2210633
readout name: Kd

Lab note: need Kd with HLA-B*51:01 for entry GTVPTDNPF , please look it up.
≥ 20 µM

----------
Molecular target: HLA-B*58:01
Assay: IEDB peptide-MHC binding, purified MHC/direct/fluorescence; filed as Kd, often an IC50 or EC50 that approximates it; bounds were set here for any values at or beyond the usual limits of such assays
Conditions: source organism: Influenza A virus (A/Switzerland/8808/2002(H1N1))
readout name: Kd

Name the reported Kd value associated with the sequence VPAQNAIST
≥ 20 µM

----------
Biological target: HLA-B*40:02
Test: IEDB peptide-MHC binding, purified MHC/competitive/radioactivity; filed as Kd, often an IC50 or EC50 that approximates it; bounds were set here for any values at or beyond the usual limits of such assays
Details: source organism: Hepatitis C virus (isolate H)
pKd: −log10 of the molar value.
readout name: pKd

// query pKd value for entry HPALVFDITK
≤ 4.15
